TARGET_DESC: hT1R2/T1R3 taste receptor (Homo sapiens, UniProt Q7RTX0+Q8TE23)
PROCEDURE_DETAILS: agonist activity against the hT1R2/T1R3 taste receptor (sweet receptor based assay)
Assay type: cell-based
CONDITION_CONTEXT: agonist activity, hT1R2/T1R3; read-out: Sweet EC50
Just a reminder that ties go to No: only EC50 strictly below 4000 nM counts as Yes.

Example cases with answers are listed next.
COMPOUND: CC(C)(C)CNC(=O)C(C)(C)N1CCC(c2ccccc2)CC1 [Compound 88]
CLASS: No

COMPOUND: Cc1cccc(N2CCN(C(C)(C)C(=O)NCC3CC3)CC2)c1C [Compound 14]
CLASS: No

COMPOUND: Cc1cccc(N2CCN(C(C)(C)C(=O)NCC(C)C)CC2)c1F [Compound 36]
CLASS: Yes

COMPOUND: Cc1cccc(N2CCN(CC(=O)NCC(C)C)CC2)c1C [Compound 12]
CLASS: No

COMPOUND: COCc1cccc(C2CCN(C(C)(C)C(=O)NCC(C)C)CC2)c1F [Compound 95]
CLASS: Yes

COMPOUND: COCc1cccc(N2CCN(C(C)(C)C(=O)NCC(C)C)CC2)c1F [Compound 4]
CLASS: Yes

COMPOUND: CC(C)CNC(=O)C(C)(C)N1CCC(c2cccc3c2OCO3)CC1 [Compound 104]
CLASS: Yes

COMPOUND: CC(C)CNC(=O)C(C)(C)N1CC=C(c2cccc(F)c2F)CC1 [Compound 59]
CLASS: Yes

We next turn to a different compound, shown below.
Q) Please indicate whether the reported EC50 of CC(C)CNC(=O)C(C)(C)N1CCc2ccccc2C1 [Compound 116] is strictly below 4000 nM.
A) Yes

---

TARGET_DESC: hT1R2/T1R3 taste receptor (Homo sapiens, UniProt Q7RTX0+Q8TE23)
PROCEDURE_DETAILS: agonist activity against the hT1R2/T1R3 taste receptor (sweet receptor based assay)
Assay type: cell-based
CONDITION_CONTEXT: agonist activity, hT1R2/T1R3; read-out: Sweet EC50
Here, each record is paired with measured pEC50 data.
Notebook: values listed as pEC50 are -log10 of the concentration (mol/L).

Known results for compounds:
COMPOUND: CCC(CC)NC(=O)C(C)(C)N1CCN(c2cccc(C)c2C)CC1
pEC50: 5.25
--
COMPOUND: COCc1c(F)cccc1C1=CCN(C(C)(C)C(=O)NCC(C)C)CC1
pEC50: 5.19
--
COMPOUND: COCc1cccc(C2CCN(C(COC)C(=O)NCC(C)C)CC2)c1F (centres unmarked)
pEC50: 5.89

Moving on to the next compound.
Q) // lookup pEC50 | system=hT1R2/T1R3 taste receptor (Homo sapiens, UniProt Q7RTX0+Q8TE23) | key= COCC(C(=O)NCC(C)C)N1CCC(c2ccccc2)CC1 (centres unmarked)
A) 5.36

---

TARGET_DESC: hT1R2/T1R3 taste receptor (Homo sapiens, UniProt Q7RTX0+Q8TE23)
Sequence (Q8TE23 20-839): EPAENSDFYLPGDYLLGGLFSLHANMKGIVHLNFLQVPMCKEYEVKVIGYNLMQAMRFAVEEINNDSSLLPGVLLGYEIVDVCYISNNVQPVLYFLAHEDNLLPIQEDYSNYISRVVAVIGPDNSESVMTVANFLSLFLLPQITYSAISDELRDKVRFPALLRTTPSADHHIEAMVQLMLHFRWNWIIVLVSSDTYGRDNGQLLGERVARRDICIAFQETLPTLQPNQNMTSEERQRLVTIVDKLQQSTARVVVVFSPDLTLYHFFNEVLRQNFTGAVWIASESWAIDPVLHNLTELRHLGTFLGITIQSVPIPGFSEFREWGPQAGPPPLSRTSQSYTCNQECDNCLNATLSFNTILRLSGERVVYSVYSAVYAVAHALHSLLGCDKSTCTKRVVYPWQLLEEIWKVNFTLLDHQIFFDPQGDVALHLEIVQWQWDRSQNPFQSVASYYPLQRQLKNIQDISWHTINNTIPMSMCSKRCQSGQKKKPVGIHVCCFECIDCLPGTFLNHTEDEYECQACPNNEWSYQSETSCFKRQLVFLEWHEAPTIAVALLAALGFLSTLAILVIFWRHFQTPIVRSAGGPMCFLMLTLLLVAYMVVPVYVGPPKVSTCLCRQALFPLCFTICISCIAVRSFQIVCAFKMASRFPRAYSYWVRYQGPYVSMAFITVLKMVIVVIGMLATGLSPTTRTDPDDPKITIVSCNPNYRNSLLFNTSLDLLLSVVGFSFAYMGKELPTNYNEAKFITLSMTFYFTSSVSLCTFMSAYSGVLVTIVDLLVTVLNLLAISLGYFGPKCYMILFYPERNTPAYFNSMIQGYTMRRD
Sequence (Q7RTX0 21-852): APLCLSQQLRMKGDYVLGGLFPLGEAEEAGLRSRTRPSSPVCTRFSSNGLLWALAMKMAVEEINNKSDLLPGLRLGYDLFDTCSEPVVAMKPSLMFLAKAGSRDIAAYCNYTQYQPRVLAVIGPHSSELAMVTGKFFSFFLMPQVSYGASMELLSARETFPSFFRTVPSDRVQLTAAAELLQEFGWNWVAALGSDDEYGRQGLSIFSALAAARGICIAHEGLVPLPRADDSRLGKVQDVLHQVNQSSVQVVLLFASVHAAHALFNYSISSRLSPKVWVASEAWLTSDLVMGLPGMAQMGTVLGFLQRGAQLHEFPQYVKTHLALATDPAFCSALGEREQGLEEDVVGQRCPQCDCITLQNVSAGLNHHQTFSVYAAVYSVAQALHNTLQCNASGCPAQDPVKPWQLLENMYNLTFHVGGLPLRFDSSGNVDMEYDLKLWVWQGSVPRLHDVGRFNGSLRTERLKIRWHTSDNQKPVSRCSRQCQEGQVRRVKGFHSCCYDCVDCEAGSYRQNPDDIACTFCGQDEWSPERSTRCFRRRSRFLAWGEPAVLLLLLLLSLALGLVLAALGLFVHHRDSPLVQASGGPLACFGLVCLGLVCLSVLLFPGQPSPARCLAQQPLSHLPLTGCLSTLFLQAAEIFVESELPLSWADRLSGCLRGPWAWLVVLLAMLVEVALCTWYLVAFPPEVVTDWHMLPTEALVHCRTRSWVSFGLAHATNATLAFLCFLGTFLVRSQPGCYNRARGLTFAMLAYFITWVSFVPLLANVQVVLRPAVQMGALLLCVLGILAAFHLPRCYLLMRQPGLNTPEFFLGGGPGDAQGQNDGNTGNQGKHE
PROCEDURE_DETAILS: agonist activity against the hT1R2/T1R3 taste receptor (sweet receptor based assay)
Assay type: cell-based
CONDITION_CONTEXT: agonist activity, hT1R2/T1R3; read-out: Sweet EC50
Method: Compounds described in this application show moderate to potent agonist effect on the sweet receptor based assay. Potencies (EC50 values, e.g. see Tables 1-3) for agonist activity were measured against the hT1R2/T1R3 taste receptor. FIG. 1 exemplifies the data generated during the screening to determine EC50 values.
ENDPOINT_LABEL: EC50 (µM)
API: value field is a number in µM; no unit string.

Q) May I ask what EC50 has been recorded for `CCCNC(=O)C(C)(C)N1CCC(c2ccccc2)CC1` ?
A) 5.5

Q) May I ask what EC50 has been recorded for `Cc1cccc(N2CCN(C(C)(C)C(=O)NCC(C)C)CC2)c1C` ?
A) 2.8

Q) May I ask what EC50 has been recorded for `CC(C)CNC(=O)C(C)(C)N1CCN(c2ccccc2F)CC1` ?
A) 6.8

---

Here, each record is paired with measured EC50 data.
TARGET_DESC: hT1R2/T1R3 taste receptor (Homo sapiens, UniProt Q7RTX0+Q8TE23)
Sequence (Q8TE23 20-839): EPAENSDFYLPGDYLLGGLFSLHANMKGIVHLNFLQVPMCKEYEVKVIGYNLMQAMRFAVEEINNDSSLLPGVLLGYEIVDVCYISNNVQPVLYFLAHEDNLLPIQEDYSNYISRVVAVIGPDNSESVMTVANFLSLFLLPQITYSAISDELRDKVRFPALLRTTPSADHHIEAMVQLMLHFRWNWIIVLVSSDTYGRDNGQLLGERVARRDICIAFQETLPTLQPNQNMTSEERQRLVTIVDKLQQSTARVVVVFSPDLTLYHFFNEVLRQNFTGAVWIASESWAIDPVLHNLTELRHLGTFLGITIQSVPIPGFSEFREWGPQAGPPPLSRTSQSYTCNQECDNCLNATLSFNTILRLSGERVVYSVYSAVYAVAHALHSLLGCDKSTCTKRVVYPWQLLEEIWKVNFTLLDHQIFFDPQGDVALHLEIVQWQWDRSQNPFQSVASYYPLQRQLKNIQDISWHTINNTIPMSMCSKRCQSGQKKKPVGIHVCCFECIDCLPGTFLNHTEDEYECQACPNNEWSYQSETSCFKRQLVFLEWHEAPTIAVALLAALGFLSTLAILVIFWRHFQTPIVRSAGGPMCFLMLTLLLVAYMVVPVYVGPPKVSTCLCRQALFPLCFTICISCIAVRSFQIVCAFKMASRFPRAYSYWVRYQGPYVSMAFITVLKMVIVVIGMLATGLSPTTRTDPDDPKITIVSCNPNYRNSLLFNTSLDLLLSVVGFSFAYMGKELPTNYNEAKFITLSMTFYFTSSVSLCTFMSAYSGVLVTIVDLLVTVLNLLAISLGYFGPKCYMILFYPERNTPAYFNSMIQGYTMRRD
Sequence (Q7RTX0 21-852): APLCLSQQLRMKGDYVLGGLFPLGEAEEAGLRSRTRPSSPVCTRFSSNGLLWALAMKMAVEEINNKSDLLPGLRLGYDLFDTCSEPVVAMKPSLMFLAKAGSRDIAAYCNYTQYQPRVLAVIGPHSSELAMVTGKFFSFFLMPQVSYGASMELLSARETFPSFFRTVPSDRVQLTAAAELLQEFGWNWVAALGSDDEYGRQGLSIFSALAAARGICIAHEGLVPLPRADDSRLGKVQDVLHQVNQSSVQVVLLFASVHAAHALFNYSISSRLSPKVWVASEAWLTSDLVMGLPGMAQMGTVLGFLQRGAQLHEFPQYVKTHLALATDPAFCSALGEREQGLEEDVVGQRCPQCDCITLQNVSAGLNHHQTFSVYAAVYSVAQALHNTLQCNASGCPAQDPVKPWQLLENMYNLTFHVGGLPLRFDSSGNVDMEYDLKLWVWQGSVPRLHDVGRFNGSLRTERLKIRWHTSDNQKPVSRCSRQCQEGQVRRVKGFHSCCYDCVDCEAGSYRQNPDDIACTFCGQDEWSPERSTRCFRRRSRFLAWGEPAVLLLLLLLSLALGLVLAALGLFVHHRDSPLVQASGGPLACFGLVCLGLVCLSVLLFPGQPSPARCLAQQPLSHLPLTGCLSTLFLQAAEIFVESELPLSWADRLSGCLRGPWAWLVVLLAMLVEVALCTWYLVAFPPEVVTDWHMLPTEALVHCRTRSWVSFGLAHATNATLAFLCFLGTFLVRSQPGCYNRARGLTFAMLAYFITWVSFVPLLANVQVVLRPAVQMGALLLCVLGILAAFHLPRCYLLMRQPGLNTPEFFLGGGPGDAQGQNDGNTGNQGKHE
PROCEDURE_DETAILS: agonist activity against the hT1R2/T1R3 taste receptor (sweet receptor based assay)
Format: cell-based
CONDITION_CONTEXT: agonist activity, hT1R2/T1R3; read-out: Sweet EC50
API: value field is a number in µM; no unit string.

MOL_SMILES: COC(=O)c1c(F)cccc1N1CCN(C(C)(C)C(=O)NCC(C)C)CC1
ENDPOINT_LABEL: EC50
READOUT_NUMBER: 11.5

Moving on to the next molecule.
Q) May I ask what EC50 has been recorded for `Cc1ccccc1C1=CCN(C(C)(C)C(=O)NCC(C)C)CC1` ?
A) 5.4
